All values here come from patent US20230118307A1.

# studySystem: human GCG receptor (human, UniProt P47871 26-477)
# Sequence (P47871 26-477): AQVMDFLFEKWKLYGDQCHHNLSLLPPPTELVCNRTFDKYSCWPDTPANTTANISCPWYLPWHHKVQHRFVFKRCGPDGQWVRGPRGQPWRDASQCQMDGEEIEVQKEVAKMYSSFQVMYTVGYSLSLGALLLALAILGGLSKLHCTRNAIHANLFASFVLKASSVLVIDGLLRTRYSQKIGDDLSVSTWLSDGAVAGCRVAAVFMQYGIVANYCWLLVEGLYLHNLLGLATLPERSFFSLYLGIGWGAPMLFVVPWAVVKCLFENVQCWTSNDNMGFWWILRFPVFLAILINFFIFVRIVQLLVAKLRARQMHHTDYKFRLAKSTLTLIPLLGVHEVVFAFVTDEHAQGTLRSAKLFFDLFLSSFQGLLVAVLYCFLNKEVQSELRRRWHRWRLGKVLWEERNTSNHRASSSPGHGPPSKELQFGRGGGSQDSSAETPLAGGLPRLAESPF
# experimentalDetails: cell-based or functional assay
Positions of bridges follow the written chain, without caps; N, C: chain ends. Non-standard residues stand in square brackets, D forms with d. No end group written: not given here. *: point of attachment. Acetyl(2-(4-imidazolyl)) = O=C(Cc1c[nH]cn1)*; Aib = CC(C)(N)C(=O)O
Below is a list of entries, each paired with its recorded In vitro Activity Compared to Native Peptide (%) vs. Glucagon value.
Please respond with the number in % and leave the unit unwritten.

[Q] What value of measured In vitro Activity Compared to Native Peptide (%) vs. Glucagon is listed for Y[Aib]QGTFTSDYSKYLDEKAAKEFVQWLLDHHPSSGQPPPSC (bridge 16-20) [triple agonist of SEQ ID NO: 75] ?
[A] 8.5

[Q] Now the binder H[Aib]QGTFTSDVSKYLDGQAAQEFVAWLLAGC [triple agonist of SEQ ID NO: 9]
[A] 0.13

[Q] Now the binder H[Aib]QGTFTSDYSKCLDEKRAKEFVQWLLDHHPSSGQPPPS (bridge 16-20) [triple agonist of SEQ ID NO: 65]
[A] 25.2

[Q] Now the binder Y[Aib]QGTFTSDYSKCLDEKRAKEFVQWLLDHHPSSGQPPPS (bridge 16-20) [triple agonist of SEQ ID NO: 22]
[A] 140

[Q] Now the binder H[Aib]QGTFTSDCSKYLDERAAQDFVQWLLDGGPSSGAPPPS [triple agonist of SEQ ID NO: 25]
[A] 0.1

[Q] Now the binder [Acetyl(2-(4-imidazolyl))][Aib]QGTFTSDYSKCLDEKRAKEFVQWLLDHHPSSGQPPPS (bridge 16-20) [triple agonist of SEQ ID NO: 74]
[A] 0.9

[Q] Now the binder [Acetyl(2-(4-imidazolyl))][Aib]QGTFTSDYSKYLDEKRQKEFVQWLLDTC (bridge 16-20) [triple agonist of SEQ ID NO: 82]
[A] 1.1

[Q] Now the binder Y[Aib]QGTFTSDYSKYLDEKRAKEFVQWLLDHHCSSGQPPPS (bridge 16-20) [triple agonist of SEQ ID NO: 43]
[A] 88.4

[Q] Now the binder Y[Aib]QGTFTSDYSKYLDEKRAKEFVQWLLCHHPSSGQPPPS (bridge 16-20) [triple agonist of SEQ ID NO: 95]
[A] 0.4

[Q] Now the binder H[Aib]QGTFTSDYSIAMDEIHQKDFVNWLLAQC (bridge 16-20) [triple agonist of SEQ ID NO: 55]
[A] 0.7

[Q] Now the binder Y[Aib]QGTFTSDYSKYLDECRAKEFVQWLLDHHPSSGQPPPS (bridge 16-20) [triple agonist of SEQ ID NO: 21]
[A] 267

[Q] Now the binder H[Aib]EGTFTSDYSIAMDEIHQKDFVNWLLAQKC (bridge 16-20) [triple agonist of SEQ ID NO: 79]
[A] 4.9

[Q] Now the binder Y[Aib]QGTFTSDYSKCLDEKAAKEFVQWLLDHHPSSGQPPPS (bridge 16-20) [triple agonist of SEQ ID NO: 68]
[A] 8.8

[Q] Now the binder Y[Aib]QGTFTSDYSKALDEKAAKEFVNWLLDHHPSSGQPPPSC (bridge 16-20) [triple agonist of SEQ ID NO: 98]
[A] 8.2

[Q] Now the binder H[Aib]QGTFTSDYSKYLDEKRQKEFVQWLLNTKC (bridge 16-20) [triple agonist of SEQ ID NO: 58]
[A] 2.6

[Q] Now the binder H[Aib]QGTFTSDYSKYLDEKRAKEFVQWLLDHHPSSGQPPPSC (bridge 16-20) [triple agonist of SEQ ID NO: 50]
[A] 50.5
